# method: AUC in Sprague-Dawley rat at 1 mg/kg, po by LC-MS/MS analysis
# Type: ADME, organism-based
# condition-label: in vivo
quantity-name: AUC (ng·h/mL)
Express it in ng·h/mL; write the number only.

Supply measured AUC of Cc1ccc(OC2CN(c3cccc(COC(=O)NC(=N)N)c3F)C2)cn1.O=C(O)C(O)C(O)C(=O)O in your reply.
2320

====

# method: AUC in Beagle dog at 0.2 mg/kg, po by LC-MS/MS analysis
# Assay type: ADME, organism-based, Canis lupus familiaris
# condition-label: in vivo
quantity-name: AUC (ng·h/mL)
Express it in ng·h/mL; write the number only.

Supply measured AUC of Cc1ccc(OC2CN(c3cccc(COC(=O)NC(=N)N)c3F)C2)cn1.O=C(O)C(O)C(O)C(=O)O in your reply.
297
